The reported measurements were obtained from patent US5856350A.

What ED50 was measured for each of the following?
Tested on: Ro 4-1284-induced hypothermia
Test Description: Antagonism to Ro 4-1284-induced hypothermia
Assay type: in vivo
Condition Context: Mus musculus, ip, Table I; male mice; Ro 4-1284 20 mg/kg i.p.; two determinations listed separately where marked *; read-out: Ro 4-1284 Induced Hypothermia ED50
Numbers only; they are read as mg/kg.

The recorded ED50 for entry COc1c(F)cccc1-c1n[n+](C)cn1C [3-F-2-CH3 O--] equals 2

So for Cn1c[n+](C)nc1-c1cccc(F)c1 [Rn 3-F--] , the logged ED50 turned out to be 0.34

Input Cn1c[n+](C)nc1-c1c(F)cccc1F [2,6-F2 --] . Output ED50: 0.58

# molecule Cn1c[n+](C)nc1-c1ccc(Cl)cc1 [Rn 4-Cl--] ; its ED50 = 0.51

Note to self: ED50 recorded for Cn1c[n+](C)nc1-c1ccccc1F [Rn 2-F--] was 0.74

The reported value for Cn1c[n+](C)nc1-c1ccc(Br)cc1 [Rn 4-Br--] in terms of ED50 is 0.81

---

Test Description: LD50
Condition Context: in vivo; Table I; species and route not given
Reported Endpoint: LD50

Note to self: LD50 recorded for Cn1c[n+](C)nc1-c1ccc(Cl)cc1 [Rn 4-Cl--] was 100 to 200 mg/kg

// recorded LD50 for Cn1c[n+](C)nc1-c1ccc(I)cc1 [Rn 4-I--] : 100 to 200 mg/kg

Looking up Cn1c[n+](C)nc1-c1c(F)cccc1F [2,6-F2 --] , I see its LD50 listed as 100 to 200 mg/kg

Given item Cn1c[n+](C)nc1-c1cccc(F)c1 [Rn 3-F--] , the value recorded as its LD50 is 200 to 400 mg/kg

// Cn1c[n+](C)nc1-c1ccccc1F [Rn 2-F--] : LD50 value = 100 to 200 mg/kg

Per the record, COc1c(F)cccc1-c1n[n+](C)cn1C [3-F-2-CH3 O--] has LD50 of 100 to 200 mg/kg

Notebook: COc1ccccc1-c1n[n+](C)cn1C [2-CH3 O--] , LD50 read as 50 to 100 mg/kg

Record Cn1c[n+](C)nc1-c1ccc(Br)cc1 [Rn 4-Br--] . Reported LD50: 200 to 400 mg/kg
